# System Under Test: Rhodesain (Trypanosoma brucei rhodesiense, UniProt Q95PM0)
# Sequence (Q95PM0 whole entry): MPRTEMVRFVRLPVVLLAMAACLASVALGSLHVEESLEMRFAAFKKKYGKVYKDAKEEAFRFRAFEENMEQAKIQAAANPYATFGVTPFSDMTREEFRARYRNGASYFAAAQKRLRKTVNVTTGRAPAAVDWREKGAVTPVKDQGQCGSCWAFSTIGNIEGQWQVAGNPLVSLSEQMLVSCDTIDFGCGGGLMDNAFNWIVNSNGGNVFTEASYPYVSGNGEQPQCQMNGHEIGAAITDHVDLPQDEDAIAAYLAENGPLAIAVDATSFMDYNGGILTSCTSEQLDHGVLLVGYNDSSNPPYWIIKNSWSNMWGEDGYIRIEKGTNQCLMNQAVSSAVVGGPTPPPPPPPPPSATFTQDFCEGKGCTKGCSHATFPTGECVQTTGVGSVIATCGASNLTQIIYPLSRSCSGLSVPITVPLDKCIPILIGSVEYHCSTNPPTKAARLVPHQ
pKi for assorted molecules
Units for pKi: none; it is -log10 of a concentration expressed in mol/L.

As a guide, the following entries are already answered.
>>> val("CC(C)C[C@H](NC(=O)c1ccc(F)cc1)C(=O)N[C@H](C#N)CCc1ccccc1")
7.28
>>> val("N#C[C@H](CCc1ccccc1)NC(=O)[C@H](Cc1ccccc1)NC(=O)c1c(F)cccc1F")
6.91

Form: Entry = `CC(C)C[C@H](NC(=O)c1c(F)cccc1F)C(=O)N[C@H](C#N)CCc1ccccc1` | System = Rhodesain (Trypanosoma brucei rhodesiense, UniProt Q95PM0) | pKi = ____ 7.28

====

# pKi measurements, system: Rhodesain (Trypanosoma brucei rhodesiense, UniProt Q95PM0)
Units for pKi: none; it is -log10 of a concentration expressed in mol/L.

As a guide, the following entries are already answered.
>>> val("N#C[C@H](CCc1ccccc1)NC(=O)[C@H](Cc1ccccc1)NC(=O)c1ccccc1F")
6.95
>>> val("CC(C)C[C@H](NC(=O)c1ccc(F)cc1F)C(=O)N[C@H](C#N)CCc1ccccc1")
7.18
>>> val("CC(C)C[C@H](NC(=O)c1ccccc1F)C(=O)N[C@H](C#N)CCc1ccccc1")
7.49
>>> val("N#C[C@H](CCc1ccccc1)NC(=O)[C@H](Cc1ccccc1)NC(=O)c1ccc(F)cc1")
7.15
>>> val("CC(C)C[C@H](NC(=O)c1cccc(F)c1)C(=O)N[C@H](C#N)CCc1ccccc1")
7.80

Form: Entry = `N#C[C@H](CCc1ccccc1)NC(=O)[C@H](Cc1ccccc1)NC(=O)c1cccc(F)c1` | System = Rhodesain (Trypanosoma brucei rhodesiense, UniProt Q95PM0) | pKi = ____ 7.14
